Value source: ChEMBL document CHEMBL1156884

Assay: Cmax in Sprague-Dawley rat at 30 mg/kg, po
Format: ADME, organism-based
Design: dose 30 mg/kg, route oral
Conditions: in vivo
assay endpoint: Cmax
Include the unit after the number when you answer.

Query: Output measured Cmax for this item: CC(C)OC(=O)C1=CN(C(=O)c2ccc(OCCN3CCOCC3)cc2)CC(C)(C)c2c1[nH]c1cc(F)ccc21
Result: 35 ng/mL

---

Test: Oral bioavailability in C57 mouse at 30 mg/kg
Type: ADME, organism-based
Conditions: in vivo
assay endpoint: bioavailability (%)
The answer is to be given in %; state only the numeric part.

Query: # return recorded bioavailability for input CC(C)OC(=O)C1=CN(C(=O)c2ccc(OCCN3CCOCC3)cc2)CC(C)(C)c2c1[nH]c1cc(F)ccc21
Result: 53

---

Experiment: Oral bioavailability in Sprague-Dawley rat 3 mg/kg
Type: ADME, organism-based
Conditions: in vivo
assay endpoint: bioavailability (%)
Write the value in % as a bare number.

Query: For the compound CC(C)OC(=O)C1=CN(C(=O)c2ccc(OCCCN3CCOCC3)cc2)CC(C)(C)c2c1[nH]c1cc(F)ccc21 , report bioavailability.
Result: 38

---

Would you mind telling me the reported solubility thermodynamic of each entry?
Assay: Equilibrium solubility in 0.5% methylcellulose/2% Tween-80 in water
Assay type: physicochemical
Only the number, expressed in µg/mL, is required.

Query: Respond only with solubility thermodynamic recorded for CC(C)OC(=O)C1=CN(C(=O)c2ccc(OCCN3CCN(C)CC3)cc2)CC(C)(C)c2c1[nH]c1ccccc21
Result: 82

Query: Provide only the value of recorded solubility thermodynamic for CC(C)OC(=O)C1=CN(C(=O)c2cccc(OCCN3CCCCC3)c2)CC(C)(C)c2c1[nH]c1ccccc21
Result: 111

Query: Answer with reported solubility thermodynamic of CC(C)OC(=O)C1=CN(C(=O)c2ccc(OCCN(C)C)cc2)CC(C)(C)c2c1[nH]c1ccccc21
Result: 17

Query: Using the record for CC(C)OC(=O)C1=CN(C(=O)c2cccc(OCCCN3CCN(C)CC3)c2)CC(C)(C)c2c1[nH]c1ccccc21 , state its measured solubility thermodynamic.
Result: 1740

Query: Using known records, supply solubility thermodynamic for CC(C)OC(=O)C1=CN(C(=O)c2ccc(OCCN3CCOCC3)cc2)CC(C)(C)c2c1[nH]c1ccccc21
Result: 80

Query: Find the measured solubility thermodynamic of CC(C)OC(=O)C1=CN(C(=O)c2ccc(OCCCN3CCOCC3)cc2)CC(C)(C)c2c1[nH]c1cc(F)ccc21 and report it.
Result: 250

Query: Determine its reported solubility thermodynamic: CC(C)OC(=O)C1=CN(C(=O)c2ccc(CN3CCOCC3)cc2)CC(C)(C)c2c1[nH]c1ccccc21
Result: 245

Query: // fetch solubility thermodynamic given entry CC(C)OC(=O)C1=CN(C(=O)c2cccc(OCCCN3CCOCC3)c2)CC(C)(C)c2c1[nH]c1ccccc21
Result: 118

---

Test: Tmax in Sprague-Dawley rat 30 mg/kg, po
Assay type: ADME, organism-based
Design: dose 30 mg/kg, route oral
Settings: in vivo
assay endpoint: Tmax (h)
Provide only the numeric value, understood in h.

Query: Tell us which Tmax value is on record for CC(C)OC(=O)C1=CN(C(=O)c2ccc(OCCN3CCOCC3)cc2)CC(C)(C)c2c1[nH]c1cc(F)ccc21
Result: 1.7

---

Test: Cmax in Sprague-Dawley rat at 3 mg/kg, po
Assay type: ADME, organism-based
Design: dose 3 mg/kg, route oral
Conditions: in vivo
assay endpoint: Cmax (ng/mL)
Give the value in ng/mL but do not write ng/mL after it.

Query: Look up and report measured Cmax for this entry: CC(C)OC(=O)C1=CN(C(=O)c2ccc(OCCCN3CCOCC3)cc2)CC(C)(C)c2c1[nH]c1cc(F)ccc21
Result: 68

---

Assay: AUC (0 to infinity) in Sprague-Dawley rat at 3 mg/kg, po
Format: ADME, organism-based
Set-up: time infinity, dose 3 mg/kg, route oral
Settings: plasma
assay endpoint: AUC(0-inf)

Query: Annotate the compound CC(C)OC(=O)C1=CN(C(=O)c2ccc(OCCCN3CCOCC3)cc2)CC(C)(C)c2c1[nH]c1cc(F)ccc21 with its measured AUC(0-inf).
Result: 361 ng·h/mL
